Data provenance: patent US20260049088A1

target: hPARG (Homo sapiens, UniProt Q86W56); construct: made in house; host or cells: E. coli; assay: PARG enzymatic activity assay (HTRF); type: biochemical; details: C-terminal His6-tag hPARG 65 pM, biotinylated-NAD ribosylated PARP1 substrate 8 nM
Sequence (Q86W56 whole entry): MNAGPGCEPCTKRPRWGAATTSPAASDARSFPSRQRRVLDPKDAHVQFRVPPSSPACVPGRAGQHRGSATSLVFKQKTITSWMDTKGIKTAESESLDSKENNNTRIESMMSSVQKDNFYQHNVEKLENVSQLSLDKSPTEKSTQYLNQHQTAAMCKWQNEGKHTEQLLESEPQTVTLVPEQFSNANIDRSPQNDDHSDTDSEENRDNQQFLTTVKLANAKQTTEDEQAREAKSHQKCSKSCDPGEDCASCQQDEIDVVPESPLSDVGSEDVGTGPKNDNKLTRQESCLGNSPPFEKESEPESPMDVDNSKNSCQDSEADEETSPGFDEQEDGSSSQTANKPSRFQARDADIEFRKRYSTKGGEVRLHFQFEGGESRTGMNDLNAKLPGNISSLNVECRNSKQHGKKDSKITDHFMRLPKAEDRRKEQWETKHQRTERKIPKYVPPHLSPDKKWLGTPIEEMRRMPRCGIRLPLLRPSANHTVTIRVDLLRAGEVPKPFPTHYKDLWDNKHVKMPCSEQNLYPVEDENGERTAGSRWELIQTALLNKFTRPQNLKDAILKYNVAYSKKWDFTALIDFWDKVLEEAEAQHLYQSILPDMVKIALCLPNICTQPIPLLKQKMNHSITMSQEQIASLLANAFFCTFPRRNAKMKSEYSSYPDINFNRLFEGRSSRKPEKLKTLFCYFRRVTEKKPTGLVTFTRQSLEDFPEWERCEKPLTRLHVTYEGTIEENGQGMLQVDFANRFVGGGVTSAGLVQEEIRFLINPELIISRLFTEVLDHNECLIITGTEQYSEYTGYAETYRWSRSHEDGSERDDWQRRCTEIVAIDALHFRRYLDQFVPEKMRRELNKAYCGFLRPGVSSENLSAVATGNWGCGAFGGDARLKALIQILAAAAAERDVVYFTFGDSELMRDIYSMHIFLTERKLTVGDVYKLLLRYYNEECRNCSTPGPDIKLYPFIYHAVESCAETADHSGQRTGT
readout: IC50

[Q] Requested field: IC50. Item: CN(CCN1CCCC1=O)c1ncnc2c1c1ccc(S(=O)(=O)NC3(C#N)CC3)cc1n2-c1nnc(C(F)F)s1 [Example 61]
[A] 100 to 1000 nM

[Q] Requested field: IC50. Item: CCN(CC)CCOc1ncnc2c1c1ccc(S(=O)(=O)NC3(C#N)CC3)cc1n2-c1nnc(C(F)F)s1 [Example 10]
[A] ≤ 100 nM

[Q] Requested field: IC50. Item: N#CC1(NS(=O)(=O)c2ccc3c4c(OCCCN5CCOCC5)ncnc4n(-c4nnc(C(F)F)s4)c3c2)CC1 [Example 2]
[A] ≤ 100 nM

[Q] Requested field: IC50. Item: CCN(CC)[C@H]1CCN(c2ncnc3c2c2ccc(S(=O)(=O)NC4(C#N)CC4)cc2n3-c2nnc(C(F)F)s2)C[C@H]1F [Example 34]
[A] ≤ 100 nM

[Q] Requested field: IC50. Item: Cc1nc(C)n(CCN(C)c2ncnc3c2c2ccc(S(=O)(=O)NC4(C#N)CC4)cc2n3-c2nnc(C(F)F)s2)n1 [Example 71]
[A] > 1000 nM

[Q] Requested field: IC50. Item: CCN(CCN1CCOCC1)c1ncnc2c1c1ccc(S(=O)(=O)NC3(C#N)CC3)cc1n2-c1nnc(C(F)F)s1 [Example 18]
[A] ≤ 100 nM

[Q] Requested field: IC50. Item: CCN(CC)C1CCN(c2ncnc3c2c2ccc(S(=O)(=O)NC4(C#N)CC4)cc2n3-c2nnc(C(F)F)s2)CC1 [Example 28]
[A] ≤ 100 nM

[Q] Requested field: IC50. Item: CN(CC1CCCOC1)c1ncnc2c1c1ccc(S(=O)(=O)NC3(C#N)CC3)cc1n2-c1nnc(C(F)F)s1 (centres unmarked) [Example 68]
[A] ≤ 100 nM

[Q] Requested field: IC50. Item: CN1CCN(c2ncnc3c2c2ccc(S(=O)(=O)NC4(C#N)CC4)cc2n3-c2nnc(C(F)F)s2)CC12CC2 [Example 48]
[A] ≤ 100 nM

[Q] Requested field: IC50. Item: CN(C)CCN(C)c1ncnc2c1c1ccc(S(=O)(=O)NC3(C#N)CC3)cc1n2-c1nnc(C(F)F)s1 [Example 62]
[A] ≤ 100 nM

[Q] Requested field: IC50. Item: CSc1ncnc2c1c1ccc(S(=O)(=O)NC3(C#N)CC3)cc1n2-c1nnc(C(F)F)s1 [Example 25]
[A] ≤ 100 nM

[Q] Requested field: IC50. Item: CN(CCO)c1ncnc2c1c1ccc(S(=O)(=O)NC3(C#N)CC3)cc1n2-c1nnc(C(F)F)s1 [Example 63]
[A] ≤ 100 nM

[Q] Requested field: IC50. Item: N#CC1(NS(=O)(=O)c2ccc3c4c(OCC5COCCN5)ncnc4n(-c4nnc(C(F)F)s4)c3c2)CC1 (centres unmarked) [Example 92]
[A] 100 to 1000 nM

[Q] Requested field: IC50. Item: CN(C[C@H]1CC[C@@H](O)CC1)c1ncnc2c1c1ccc(S(=O)(=O)NC3(C#N)CC3)cc1n2-c1nnc(C(F)F)s1 [Example 73]
[A] ≤ 100 nM
